# target_system: SpCas9 (Streptococcus pyogenes serotype M1, UniProt Q99ZW2)
# Sequence (Q99ZW2 whole entry): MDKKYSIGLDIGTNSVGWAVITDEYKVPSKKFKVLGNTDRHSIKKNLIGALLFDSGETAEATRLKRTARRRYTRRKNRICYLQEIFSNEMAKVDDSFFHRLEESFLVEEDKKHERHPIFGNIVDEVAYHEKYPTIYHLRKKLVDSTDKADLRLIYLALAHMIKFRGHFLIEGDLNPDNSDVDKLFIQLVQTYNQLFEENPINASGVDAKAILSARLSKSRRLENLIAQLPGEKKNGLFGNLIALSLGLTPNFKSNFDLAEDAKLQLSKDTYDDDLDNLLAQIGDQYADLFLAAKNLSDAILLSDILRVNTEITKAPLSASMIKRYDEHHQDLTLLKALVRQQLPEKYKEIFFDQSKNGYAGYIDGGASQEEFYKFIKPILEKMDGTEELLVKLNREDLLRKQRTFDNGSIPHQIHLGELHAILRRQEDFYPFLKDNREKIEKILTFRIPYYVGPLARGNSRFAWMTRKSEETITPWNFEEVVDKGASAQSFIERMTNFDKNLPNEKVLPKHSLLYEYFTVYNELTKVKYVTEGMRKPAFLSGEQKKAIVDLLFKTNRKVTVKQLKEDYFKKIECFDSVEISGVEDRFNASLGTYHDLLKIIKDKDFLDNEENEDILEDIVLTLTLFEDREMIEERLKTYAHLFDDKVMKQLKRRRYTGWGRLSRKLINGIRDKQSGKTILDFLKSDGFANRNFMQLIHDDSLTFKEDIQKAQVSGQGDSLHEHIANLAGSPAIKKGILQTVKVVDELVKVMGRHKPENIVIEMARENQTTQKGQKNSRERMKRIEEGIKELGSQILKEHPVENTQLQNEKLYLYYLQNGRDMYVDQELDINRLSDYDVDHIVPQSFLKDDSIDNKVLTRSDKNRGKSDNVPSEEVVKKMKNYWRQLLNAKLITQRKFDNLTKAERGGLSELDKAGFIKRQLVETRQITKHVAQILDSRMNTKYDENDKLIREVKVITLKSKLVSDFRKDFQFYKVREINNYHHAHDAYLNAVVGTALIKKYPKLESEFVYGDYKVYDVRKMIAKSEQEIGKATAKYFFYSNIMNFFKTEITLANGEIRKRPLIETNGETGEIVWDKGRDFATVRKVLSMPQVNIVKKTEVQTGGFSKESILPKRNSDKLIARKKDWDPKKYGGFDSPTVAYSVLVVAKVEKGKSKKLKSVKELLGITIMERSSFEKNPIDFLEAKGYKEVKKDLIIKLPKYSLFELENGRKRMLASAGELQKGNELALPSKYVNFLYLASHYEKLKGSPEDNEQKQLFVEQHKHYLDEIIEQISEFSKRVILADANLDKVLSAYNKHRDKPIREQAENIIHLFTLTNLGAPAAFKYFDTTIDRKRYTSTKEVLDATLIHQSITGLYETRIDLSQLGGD
# assay_procedure: Strand displacement assay (SDA) / cumulative activity assay (CAA), SpCas9 primary screen
# Assay type: biochemical
# settings: Primary Screen (150 min)
A collection of molecules and their measured avg z score primary
Note: the reply should be a number with no unit written.

# molecule, recorded_result
rows = [
    ("O=C(O)CSc1nnc(NC2CCCCC2)s1 [Compound T5211003]", 4.50),
]

Request: Provide avg z score primary value for the following molecule: Cc1ccc(Cl)cc1NC(=O)C1=NCCN1 [Compound T0519-9012]
Response: 5.06

Request: Find the measured avg z score primary of CCCN(CCC)C1=CC(=O)C(C)=C(C)C1=O [Compound T0502-3042] and report it.
Response: 4.92

Request: Answer with the recorded avg z score primary of CCn1c(CCC(=O)O)nc2cc(S(N)(=O)=O)ccc21 [Compound T5380152] only.
Response: 4.58

Request: Please report avg z score primary for the following molecule: O=C(NCC1CCCO1)c1ccc(Oc2ccnc(-c3ccc(F)cc3)n2)cc1 (stereo not drawn) [Compound L662-0604]
Response: 6.87

----------
# target_system: SpCas9 (Streptococcus pyogenes serotype M1, UniProt Q99ZW2)
# assay_procedure: Strand displacement assay (SDA) / cumulative activity assay (CAA), SpCas9 primary screen
# Assay type: biochemical
# settings: Primary Screen (150 min)
Mark 1 (yes) only for Average Normalized Z score values smaller than 0.2; exact matches and larger values are 0 (no).

# compound, label
measured = [
    ("CC(C)CNC(=O)c1ccc(Oc2ccnc(-c3ccc(F)cc3)n2)cc1", "0 (no)"),
    ("O=C(NCc1ccc2c(c1)OCO2)c1cccc(Oc2cc(-c3ccccc3)ncn2)c1", "0 (no)"),
    ("Cn1nc(-c2ccccc2F)c2cc(C(=O)Oc3ccc4cnccc4c3)sc21", "1 (yes)"),
    ("C=Cc1ccc(CSC2=NS(=O)(=O)c3ccccc3N2)cc1", "1 (yes)"),
]

# evaluate next
Request: Is it true that Average Normalized Z score reported for CCC(C)NC(=O)c1cccc(Oc2cc(-c3ccccc3)ncn2)c1 (stereo not shown) is less than 0.2?
Response: 0 (no)

----------
# target_system: SaCas9 (Staphylococcus aureus, UniProt J7RUA5)
# Sequence (J7RUA5 whole entry): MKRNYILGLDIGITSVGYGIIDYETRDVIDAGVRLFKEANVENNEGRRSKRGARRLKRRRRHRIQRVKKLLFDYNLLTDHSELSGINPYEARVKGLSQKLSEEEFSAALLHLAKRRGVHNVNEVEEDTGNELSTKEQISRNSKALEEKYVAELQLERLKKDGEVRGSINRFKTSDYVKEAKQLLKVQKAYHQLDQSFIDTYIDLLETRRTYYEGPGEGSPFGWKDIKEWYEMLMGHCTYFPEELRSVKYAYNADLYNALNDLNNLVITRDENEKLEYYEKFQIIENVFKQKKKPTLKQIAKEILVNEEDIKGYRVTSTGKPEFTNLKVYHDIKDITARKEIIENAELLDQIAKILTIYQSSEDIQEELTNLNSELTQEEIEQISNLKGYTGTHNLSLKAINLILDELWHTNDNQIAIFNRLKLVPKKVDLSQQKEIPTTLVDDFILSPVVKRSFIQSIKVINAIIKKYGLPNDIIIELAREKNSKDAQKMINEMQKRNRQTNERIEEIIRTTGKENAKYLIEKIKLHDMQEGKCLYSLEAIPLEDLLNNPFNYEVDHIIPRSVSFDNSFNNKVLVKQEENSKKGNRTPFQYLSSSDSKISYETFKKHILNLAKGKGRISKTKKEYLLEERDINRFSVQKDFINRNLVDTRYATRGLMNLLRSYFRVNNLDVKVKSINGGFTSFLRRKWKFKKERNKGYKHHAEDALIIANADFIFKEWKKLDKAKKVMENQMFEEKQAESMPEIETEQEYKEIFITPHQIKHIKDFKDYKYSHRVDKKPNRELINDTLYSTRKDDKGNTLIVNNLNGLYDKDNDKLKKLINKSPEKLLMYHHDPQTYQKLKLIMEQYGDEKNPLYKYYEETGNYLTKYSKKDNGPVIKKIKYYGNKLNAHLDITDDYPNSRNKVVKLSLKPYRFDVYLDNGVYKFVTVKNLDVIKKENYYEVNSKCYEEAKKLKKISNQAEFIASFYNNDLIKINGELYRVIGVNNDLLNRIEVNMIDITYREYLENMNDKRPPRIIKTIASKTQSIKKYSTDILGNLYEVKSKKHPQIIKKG
# assay_procedure: Strand displacement assay, SaCas9 primary screen
# Format: biochemical
# settings: SaCas9 primary screen, Auto Zscore, replicate 2
The following ranges of Auto Zscore Rep 2 define the classes used here: lower range = under -0.1, middle range = from -0.1 up to 0.9, upper range = 0.9 and over

Recorded results for 4 compounds are shown here.
# compound, label
measured = [
    ("CCN(Cc1ccccc1)c1ccc(NS(=O)(=O)CC)cc1C(=O)O [Cpd F294-0006]", "lower range"),
    ("CCS(=O)(=O)Nc1cnc(N(CC(C)C)CC(C)C)c(C(=O)O)c1 [Cpd F293-0563]", "upper range"),
    ("CC1(C(=O)NC2CCCCC2)Cn2c(cc3ccccc32)C(=O)N1c1ccc2c(c1)OCCO2 (centres unmarked) [Cpd E234-0056]", "upper range"),
    ("COCCc1nnc2n1N=C(c1ccc(Cl)cc1)CS2 [Cpd D727-0342]", "upper range"),
]

Request: Which category fits this record: O=C(CSc1ccc2ccccc2c1)NCCc1ccc(O)c(O)c1 [Cpd T0509-3636]
Response: middle range

Request: Entry NS(=O)(=O)c1ccc(CCNC(=O)C2=Cc3sc4c(c3CS2)CCCC4)cc1 [Compound E722-2588] belongs to which category?
Response: lower range

Request: Which Auto Zscore Rep 2 category applies to Nc1c(C(=O)N2CCCCC2)sc(=S)n1Cc1ccccc1 [Compound F128-0042] here?
Response: middle range

Request: Just checking, what class would you give O=C1CC(c2ccc(O)c(O)c2)c2c(nc(SCc3ccccc3)[nH]c2=O)N1 (centres unmarked) [Cpd D271-0007] here?
Response: lower range

Request: Which category fits this record: Cc1cc(C)c(S(=O)(=O)Nc2cnc(N3CCCC3)c(C(=O)O)c2)cc1C [Cpd F293-0458]
Response: upper range

Request: Which Auto Zscore Rep 2 category applies to CN(C)c1ncc(NS(=O)(=O)c2ccc(F)c(F)c2)cc1C(=O)O [Cpd F293-0815] here?
Response: upper range

Request: Which category fits this record: Cc1nc2ccccc2n1Cc1nnc2n1N=C(N)CS2 [Compound D727-0339]
Response: lower range

Request: Would you mind sorting O=C(O)c1cc(NS(=O)(=O)c2ccc3c(c2)CCCC3)cnc1N1CCCC1 [Cpd F293-0441] into the appropriate category?
Response: upper range

Request: Which of the defined bands does the recorded Auto Zscore Rep 2 of CCN(Cc1ccccc1)c1ncc(NS(=O)(=O)c2cc(C)ccc2C)cc1C(=O)O [Cpd F293-0010] sit within?
Response: upper range

Request: Which class is correct for the following compound? NC(=O)c1c(NC(=O)COCc2cc(-c3ccc4c(c3)OCO4)on2)sc2c1CCCC2 [Compound E613-0091]
Response: lower range

Request: Into which bin does this compound go? CCN(Cc1ccccc1)c1ccc(NS(=O)(=O)c2c(C)cc(C)cc2C)cc1C(=O)O [Cpd F294-0002]
Response: middle range

Request: Class label required: Cc1noc2c1C(c1ccc(O)c(O)c1)C1=C(CC(c3ccc(O)cc3)CC1=O)N2 (centres unmarked) [Cpd D588-0188]
Response: middle range

Request: Note: place this compound into its band. Item: c1ccc(CCCNc2nn3nnnc3c3ccccc23)cc1 [Cpd C301-8945]
Response: upper range

Request: Each compound maps to one class by Auto Zscore Rep 2. Which class for O=c1ccc2ccc(OCc3nnn[nH]3)cc2o1 [Cpd D715-0997] ?
Response: middle range

Request: Quick check: band for Fc1ccc(-c2nn3c(CSc4ccccc4)nnc3s2)cc1 [Cpd D727-0190]
Response: lower range

Request: Form: Item = CCOC(=O)c1c(NC(=O)CSc2nnc3cc(C)c4cccc(OC)c4n23)sc(C)c1C [Cpd D278-0687] ; Class = ?
Response: middle range

Request: Textbook exercise: identify the category of the compound given here, O=C(c1ccccc1)c1cnc2ccc(F)cc2c1S(=O)(=O)c1ccc(F)cc1 [Cpd C770-0245] , according to its measured value.
Response: middle range

Request: Determine which band this compound sits in: Cc1cc(-c2nn3c(COc4ccccc4)nnc3s2)no1 [Cpd D727-0624]
Response: middle range

Request: Kindly identify the class of CCOc1ccc(NC(=O)c2oc3cc(C)ccc3c2C)c2cccnc12 [Cpd D656-0040] .
Response: lower range
